- Target of assay: Choline O-acetyltransferase (Rattus norvegicus)
- Sequence (P32738 whole entry): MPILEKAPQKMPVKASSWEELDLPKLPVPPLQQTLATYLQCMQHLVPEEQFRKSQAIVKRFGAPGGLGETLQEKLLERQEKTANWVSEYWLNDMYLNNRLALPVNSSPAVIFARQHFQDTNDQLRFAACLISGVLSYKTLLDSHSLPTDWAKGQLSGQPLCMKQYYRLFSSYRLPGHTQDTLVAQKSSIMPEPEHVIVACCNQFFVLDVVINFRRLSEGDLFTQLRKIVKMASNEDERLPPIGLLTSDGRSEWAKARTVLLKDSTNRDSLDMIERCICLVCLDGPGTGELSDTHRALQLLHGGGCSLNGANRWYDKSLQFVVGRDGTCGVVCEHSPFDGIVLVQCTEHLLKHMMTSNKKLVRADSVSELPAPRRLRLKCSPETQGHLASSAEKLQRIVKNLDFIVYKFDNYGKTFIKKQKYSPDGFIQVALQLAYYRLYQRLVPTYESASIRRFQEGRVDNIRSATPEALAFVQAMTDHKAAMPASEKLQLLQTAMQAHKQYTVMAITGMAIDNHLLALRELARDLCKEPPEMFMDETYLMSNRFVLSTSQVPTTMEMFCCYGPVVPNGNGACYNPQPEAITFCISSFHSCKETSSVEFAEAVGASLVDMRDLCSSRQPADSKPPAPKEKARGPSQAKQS
- Test protocol: Inhibition of Holtzman rat brain choline acetyltransferase using [1-14C-acetyl]-CoA as substrate at 1 mM incubated 20 mins prior to substrate addition measured after 30 mins by liquid scintillation counting analysis
- Measurement parameters: read-out: I50
pIC50: −log10 of the molar value.
Observation type: pIC50

Given the compound C=CC(=O)O , what is its reported pIC50?
> 3.70

----------
- Test protocol: Half life of the compound auto-hydrolysis at 5 X 10^-3 M at pH 7.4
- Type: physicochemical
- Measurement parameters: buffer
Observation type: half-life at 5000 µM (h)
Provide the reading as a plain figure in h.

For C=CC(=O)OCCN(C)C , what is its reported half-life at 5000 µM?
24

----------
- Target of assay: UniProt:P32738
- Test protocol: Inhibition of Holtzman rat brain choline acetyltransferase using [1-14C-acetyl]-CoA as substrate incubated 20 mins prior to substrate addition measured after 30 mins by liquid scintillation counting analysis
- Measurement parameters: read-out: I50
Observation type: pIC50
API: returns pIC50 as number; meaning -log10 of concentration in mol/L.

Return reported pIC50; argument: C=CC(=O)OCCN(C)C
3.30

----------
- Test protocol: Dissociation constant, pKa of the compound
- Format: physicochemical
Observation type: pKa
API doc: respond with a numeric literal and nothing else, no unit.

Endpoint output: pKa of C=CC(=O)OCCN(C)C . Value?
8.6
